- Tested on: Rattus norvegicus
- method.description: Effect on HVA level in rat brain striatum regions at a dose of 27 uM/kg sc 60 min before death
- Format: functional, organism-based
observable: Level
Form field (numeric): enter value without unit.

For orientation, consider the following solved cases.
molecule=CC(C)N1CCC[C@@H](c2cccc(O)c2)C1 observable=Level val=68
molecule=CCCCN1CCC[C@H](c2cccc(O)c2)C1 observable=Level val=52
molecule="CCCN1CCC[C@@H](c2cccc(O)c2)C1 [PRECLAMOL]" observable=Level val=162
molecule=CCCCN1CCC[C@@H](c2cccc(O)c2)C1 observable=Level val=142
molecule=CCCN1CCC[C@H](c2cccc(O)c2)C1 observable=Level val=45

Problem: Which Level reading was recorded for the molecule `CC(C)N1CCC[C@H](c2cccc(O)c2)C1` ?
Result: 89

====

- Test system: Rattus norvegicus
- method.description: Effect on DOPAC level in limbic system of rat brain at a dose of 27 uM/kg sc 60 min before death
- Assay type: functional, organism-based
# Level per record follows

Known results for compounds:
smiles_structure=CCCCN1CCC[C@H](c2cccc(O)c2)C1 observable=Level val=55
smiles_structure=CC(C)N1CCC[C@@H](c2cccc(O)c2)C1 observable=Level val=60
smiles_structure=CCCCN1CCC[C@@H](c2cccc(O)c2)C1 observable=Level val=91

Now turn to the next compound.
Problem: Form field: Level recorded for `CCCN1CCC[C@@H](c2cccc(O)c2)C1` with Rattus norvegicus (enter value)
Result: 114

====

Below, each entry is listed alongside its reported Level.
- System: Rattus norvegicus
- method.description: Effect on DOPAC level in rat brain striatum regions at a dose of 27 uM/kg sc 60 min before death
- Type: functional, organism-based
Number, no unit, nothing else.

Some solved cases for reference:
smiles_structure=CCCCN1CCC[C@@H](c2cccc(O)c2)C1 tested_system="Rattus norvegicus" observable=Level val=118
smiles_structure=CCCCN1CCC[C@H](c2cccc(O)c2)C1 tested_system="Rattus norvegicus" observable=Level val=58
smiles_structure=CC(C)N1CCC[C@@H](c2cccc(O)c2)C1 tested_system="Rattus norvegicus" observable=Level val=81
smiles_structure=CCCN1CCC[C@H](c2cccc(O)c2)C1 tested_system="Rattus norvegicus" observable=Level val=63
smiles_structure=CC(C)N1CCC[C@H](c2cccc(O)c2)C1 tested_system="Rattus norvegicus" observable=Level val=74

Now, please, on to the next compound.
Problem: Level lookup needed for `CCCN1CCC[C@@H](c2cccc(O)c2)C1` , thanks.
Result: 145
